molecular target: Cathepsin B (Homo sapiens)
quantity: IC50

*Q* Tell us which IC50 value is on record for "N#Cc1nc(NCc2cccc(-c3cn(S(=O)(=O)c4ccccc4)c4ccccc34)c2)c2ncn(CCCO)c2n1"
*A* > 50 µM

*Q* Output IC50 of "COC(=O)c1ccccc1-c1cccc(CNc2nc(C#N)nc3c2ncn3CCCO)c1"
*A* > 15 µM

*Q* Please look at this compound and report its IC50: "COc1ncc(-c2cccc(CNc3nc(C#N)nc4c3ncn4CCCO)c2)c(OC)n1"
*A* > 15 µM

*Q* Using known records, supply IC50 for "N#Cc1nc(NCc2cccc(-c3cc4ccccc4n3S(=O)(=O)c3ccccc3)c2)c2ncn(CCCO)c2n1"
*A* > 50 µM

*Q* State its IC50: "CC(C)Oc1c(Br)cccc1-c1cccc(CNc2nc(C#N)nc3c2ncn3CCCO)c1"
*A* > 50 µM
